Target: T1, full-length beta-Catenin (Uniprot ID P35222) (Homo sapiens (Human), UniProt P35222 2-781)
T1 construct: full-length; also called bCat; B-Catenin
T1 sequence: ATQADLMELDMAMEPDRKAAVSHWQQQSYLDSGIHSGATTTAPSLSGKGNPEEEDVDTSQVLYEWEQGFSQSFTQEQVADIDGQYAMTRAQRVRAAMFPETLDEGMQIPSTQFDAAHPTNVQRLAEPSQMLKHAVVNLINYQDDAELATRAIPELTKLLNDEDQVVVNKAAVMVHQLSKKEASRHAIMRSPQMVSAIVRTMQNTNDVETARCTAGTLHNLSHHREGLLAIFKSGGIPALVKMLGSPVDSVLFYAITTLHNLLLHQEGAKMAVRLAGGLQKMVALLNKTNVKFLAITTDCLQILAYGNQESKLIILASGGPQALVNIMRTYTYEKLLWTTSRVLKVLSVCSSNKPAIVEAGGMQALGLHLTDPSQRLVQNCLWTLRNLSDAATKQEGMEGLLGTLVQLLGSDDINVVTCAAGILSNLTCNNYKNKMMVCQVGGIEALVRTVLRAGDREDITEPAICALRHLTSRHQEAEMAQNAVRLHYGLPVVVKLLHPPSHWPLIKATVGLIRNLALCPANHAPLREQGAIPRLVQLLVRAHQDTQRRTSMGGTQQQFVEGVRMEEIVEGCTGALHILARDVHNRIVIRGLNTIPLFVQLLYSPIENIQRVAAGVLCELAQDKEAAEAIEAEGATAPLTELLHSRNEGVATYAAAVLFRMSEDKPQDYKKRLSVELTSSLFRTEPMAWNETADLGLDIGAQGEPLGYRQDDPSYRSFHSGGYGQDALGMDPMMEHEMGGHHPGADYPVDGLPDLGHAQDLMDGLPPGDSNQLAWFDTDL
Assay: fluorescence polarization competition; displaces 5FAM-TCF4(10-53) from full-length beta-catenin
Description: The plate was incubated protected from light for 60 minutes at 20° C. prior to read. Reads were performed on a CLARIOstar plate reader (BMG Labtech) in duplicate, and data were fitted to a 1:1 binding model with hill slope using an in-house script. All provided concentrations are final concentrations.
pIC50: −log10 of the molar value. Starred links: 1 amine or outer side, 2 acyl side, 3 side chain; linkers in the order of their positions; H or OH if unused. Positions of bridges follow the written chain, without caps; N, C: chain ends. Non-standard residues stand in square brackets, D forms with d. Primed or numbered codes have the meaning given here. B5(15) = 2-amino-2-(pent-4-en-1-yl)hept-6-enoic acid (2,2-bis(4-pentenyl)glycine), stitching residue bearing two staples, C=CCCCC(CCCC=C)(N[*:1])C(=O)[*:2]; B5(23) = 2-amino-2-(pent-4-en-1-yl)hept-6-enoic acid (2,2-bis(4-pentenyl)glycine), stitching residue, C=CCCCC(CCCC=C)(N[*:1])C(=O)[*:2]; Bta = N[C@@H](Cc1csc2ccccc12)C(=O)O; αAllylPro = C=CC[C@@]1(C(=O)O)CCCN1; S8 = C=CCCCCCC[C@](C)(N)C(=O)O; hSer = N[C@@H](CCO)C(=O)O
PARAMETER MEASURED: pIC50

BINDER: Ac-[αAllylPro]D[hSer][B5(15)]DEAAFL[S8]F[Bta]Q-NH2 (staple 1-4, 4-11, Stapled peptide composition; also called Ac-PL3-Asp-Hse-B5-Asp-Glu-Ala-Ala-Phe-Leu-S8-Phe-BztA-Gln-NH2) [I-1546]
QUANTITATIVE READOUT: 7.15
--
BINDER: Ac-[αAllylPro]DN[B5(15)]DEAAF[hSer][S8]F[Bta]Q-NH2 (staple 1-4, 4-11; not fully specified; printed as Ac-PL3-Asp-Asn-B5-Asp-Glu-Ala-Ala-Phe-Hse-S8-Phe-BztA-Gln-NH2, Stapled peptide composition; Same description as I-1535; earlier eluting HPLC peak (staple isomer); also called Ac-PL3-Asp-Asn-B5-Asp-Glu-Ala-Ala-Phe-Hse-S8-Phe-BztA-Gln-NH2) [I-1534]
QUANTITATIVE READOUT: 6.74
--
BINDER: Ac-[αAllylPro]DN[B5(15)]DEAAF[hSer][S8]F[Bta]Q-NH2 (staple 1-4, 4-11; not fully specified; printed as Ac-PL3-Asp-Asn-B5-Asp-Glu-Ala-Ala-Phe-Hse-S8-Phe-BztA-Gln-NH2, Stapled peptide composition; later eluting HPLC peak (staple isomer); also called Ac-PL3-Asp-Asn-B5-Asp-Glu-Ala-Ala-Phe-Hse-S8-Phe-BztA-Gln-NH2) [I-1535]
QUANTITATIVE READOUT: 7.14
--
BINDER: Ac-[αAllylPro]DN[B5(15)]DEAAFL[S8]F[Bta]Q-NH2 (staple 1-4, 4-11, Stapled peptide composition; also called Ac-PL3-Asp-Asn-B5-Asp-Glu-Ala-Ala-Phe-Leu-S8-Phe-BztA-Gln-NH2) [I-1533]
QUANTITATIVE READOUT: 7.12
--
BINDER: XDQXDEAAFQXFXQ (not fully specified; N-terminal Ac; PL3 at 1, B5 at 4, S8 at 11 (staples PL3-B5 and B5-S8 by olefin metathesis); BztA at 13; C-terminal NH2, Stapled peptide composition; earlier eluting HPLC peak (staple isomer); also called Ac-PL3-Asp-Gln-B5-Asp-Glu-Ala-Ala-Phe-Gln-S8-Phe-BztA-Gln-NH2) [I-1539]
QUANTITATIVE READOUT: 7.44
--
BINDER: XDSXDEAAFQXFXQ (not fully specified; N-terminal Ac; PL3 at 1, B5 at 4, S8 at 11 (staples PL3-B5 and B5-S8 by olefin metathesis); Hse at 3; BztA at 13; C-terminal NH2, Stapled peptide composition; later eluting HPLC peak (staple isomer); also called Ac-PL3-Asp-Hse-B5-Asp-Glu-Ala-Ala-Phe-Gln-S8-Phe-BztA-Gln-NH2) [I-1545]
QUANTITATIVE READOUT: 7.59
--
BINDER: Ac-[αAllylPro]DK[B5(23)]DEAAFL[S8]F[Bta]Q-NH2 (staple 1-4, 4-11, Stapled peptide composition; also called Ac-PL3-Asp-Lys-B5-Asp-Glu-Ala-Ala-Phe-Leu-S8-Phe-BztA-Gln-NH2) [I-1553]
QUANTITATIVE READOUT: 6.88
